System: HeLa Kyoto;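 note: HeLa Kyoto cells synchronized by double thymidine or nocodazole block, proteins quantified by TMT10plex mass spectrometry, three independent biological replicates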
Assay: melting temperature (median over replicates), in situ; higher = more thermally stable
Conditions: cell cycle stage: G1/S
Recorded melting temperature for the following sequences
Write the answer as a number in °C, unit excluded.

[
  {
    "sequence-content": "MALLALLLVVALPRVWTDANLTARQRDPEDSQRTDEGDNRVWCHVCERENTFECQNPRRCKWTEPYCVIAAVKIFPRFFMVAKQCSAGCAAMERPKPEEKRFLLEEPMPFFYLKCCKIRYCNLEGPPINSSVFKEYAGSMGESCGGLWLAILLLLASIAAGLSLS [LY6K]",
    "melting temperature / °C": 52.6
  },
  {
    "sequence-content": "MAAMRKALPRRLVGLASLRAVSTSSMGTLPKRVKIVEVGPRDGLQNEKNIVSTPVKIKLIDMLSEAGLSVIETTSFVSPKWVPQMGDHTEVLKGIQKFPGINYPVLTPNLKGFEAAVAAGAKEVVIFGAASELFTKKNINCSIEESFQRFDAILKAAQSANISVRGYVSCALGCPYEGKISPAKVAEVTKKFYSMGCYEISLGDTIGVGTPGIMKDMLSAVMQEVPLAALAVHCHDTYGQALANTLMALQMGVSVVDSSVAGLGGCPYAQGASGNLATEDLVYMLEGLGIHTGVNLQKLLEAGNFICQALNRKTSSKVAQATCKL [HMGCL]",
    "melting temperature / °C": 54.1
  }
]

Okay, next one:
Input: Recorded melting temperature of MSASAPAAEGEGTPTQPASEKEPEMPGPREESEEEEDEDDEEEEEEEKEKSLIVEGKREKKKVERLTMQVSSLQREPFTIAQGKGQKLCEIERIHFFLSKKKTDELRNLHKLLYNRPGTVSSLKKNVGQFSGFPFEKGSVQYKKKEEMLKKFRNAMLKSICEVLDLERSGVNSELVKRILNFLMHPKPSGKPLPKSKKTCSKGSKKERNSSGMARKAKRTKCPEILSDESSSDEDEKKNKEESSDDEDKESEEEPPKKTAKREKPKQKATSKSKKSVKSANVKKADSSTTKKNQNSSKKESESEDSSDDEPLIKKLKKPPTDEELKETIKKLLASANLEEVTMKQICKKVYENYPTYDLTERKDFIKTTVKELIS , please.
Output: 48.8
